B1: SPACA3 (parent)
chain: FTSGFNAAALDYEADGSTNNGIFQ

# Variants of: B1
# PROTOCOL SUMMARY: protein stability index of a GFP-peptide fusion (GPS, HEK-293T) (PSI 1-6); higher = more stable;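 note: lentivirally expressed fusions sorted by FACS into six bins by GFP to DsRed ratio, PSI derived from sequencing read proportions per bin multiplied by bin number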
# MEASUREMENT CONTEXT: c terminus: a fixed tail appended
PARAMETER MEASURED: protein stability index

The examples below pair each entry with its known result.
- MUT: "A8D"
  protein stability index: 2.98
- MUT: "N6M"
  protein stability index: 3.01
- MUT: "D11P"
  protein stability index: 1.84
- MUT: "D15W"
  protein stability index: 2.46
- MUT: "I22A"
  protein stability index: 2.36

Give protein stability index for each of the items listed below.
1. Y12Q
2. A7H
3. S3N
4. F1Q
5. F1C
6. G16K
7. G21C

Result ::
1. 2.25
2. 2.2
3. 2.56
4. 4.24
5. 3.44
6. 2.26
7. 1.97

Give protein stability index for each of the items listed below.
1. F23I
2. D11T
3. T18A

Result ::
2
2
1.87

Give protein stability index for each of the items listed below.
1. G16A
2. F1W
3. S3E

Result ::
1. 2.3
2. 3.6
3. 2

Give protein stability index for each of the items listed below.
1. Q24H
2. G16T
3. T18R
4. L10C

Result ::
1: 2.46; 2: 2.26; 3: 2.02; 4: 1.92
